- target.system: Tryptase beta-1 (Homo sapiens, UniProt Q15661)
- Sequence (Q15661 whole entry): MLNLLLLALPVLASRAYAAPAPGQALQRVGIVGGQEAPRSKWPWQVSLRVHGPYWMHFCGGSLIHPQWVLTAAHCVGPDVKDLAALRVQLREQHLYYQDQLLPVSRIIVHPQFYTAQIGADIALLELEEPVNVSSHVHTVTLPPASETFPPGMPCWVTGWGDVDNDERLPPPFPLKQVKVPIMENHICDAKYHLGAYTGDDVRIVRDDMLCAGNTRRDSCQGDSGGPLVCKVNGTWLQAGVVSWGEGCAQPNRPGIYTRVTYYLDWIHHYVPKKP
- assay.protocol: Inhibition of human B tryptase
- measurement.context: read-out: Ki app
outcome.measure: Ki (nM)

Reference set (2 entries):
>  <compound>
COCC(=O)N[C@@H](CCCCN)C(=O)c1noc(Cc2ccc(OCCc3ccc(Cl)c(Cl)c3)cc2)n1.Cl

>  <target.system>
Tryptase beta-1 (Homo sapiens, UniProt Q15661)

>  <observed.measurement>
3.7

$$$$
>  <compound>
NCCCC[C@H](NC(=O)C1CC1)C(=O)c1noc(Cc2ccc(OCCc3ccc(Cl)c(Cl)c3)cc2)n1

>  <target.system>
Tryptase beta-1 (Homo sapiens, UniProt Q15661)

>  <observed.measurement>
4.6

$$$$

[I] CCN(CC)C(=O)N[C@@H](CCCCN)C(=O)c1noc(Cc2ccc(OCCc3ccc(Cl)c(Cl)c3)cc2)n1.Cl
[II] Cl.NCCCC[C@H](NC(=O)N1CCCC1)C(=O)c1noc(Cc2ccc(OCCc3ccc(Cl)c(Cl)c3)cc2)n1
*Q* Short answer wanted: higher Ki, I or II ? Your answer should be the label of the entry you select.
*A* II

[A] COC(=O)N[C@@H](CCCCN)C(=O)c1noc(Cc2ccc(OCCc3ccc(Cl)c(Cl)c3)cc2)n1.Cl
[B] CC(C)C(=O)N[C@@H](CCCCN)C(=O)c1noc(Cc2ccc(OCCc3ccc(Cl)c(Cl)c3)cc2)n1.Cl
[C] CCCCCC(=O)N[C@@H](CCCCN)C(=O)c1noc(Cc2ccc(OCCc3ccc(Cl)c(Cl)c3)cc2)n1.Cl
*Q* // sort entries: Ki, high to low Reply with the labels, ordered as the question asks.
*A* A, C, B
(A: 17 nM, C: 9.8 nM, B: 6.8 nM)

###

Target or system Tryptase beta-1 (Homo sapiens, UniProt Q15661): recorded Ki listed per item.
outcome.measure: Ki (nM)

Some solved cases for reference:
>  <compound>
Cl.NCCCC[C@H](NC(=O)C1CCCC1)C(=O)c1noc(Cc2ccc(OCCc3ccc(Cl)c(Cl)c3)cc2)n1

>  <Ki / nM>
6.5

$$$$
>  <compound>
CCOC(=O)N[C@@H](CCCCN)C(=O)c1noc(Cc2ccc(OCCc3ccccc3)cc2)n1

>  <Ki / nM>
5.4

$$$$

[A] Cl.NCCCC[C@H](NC(=O)c1ccccc1F)C(=O)c1noc(Cc2ccc(OCCc3ccc(Cl)c(Cl)c3)cc2)n1
[B] Cl.NCCCC[C@H](NC(=O)C1CCOC1)C(=O)c1noc(Cc2ccc(OCCc3ccc(Cl)c(Cl)c3)cc2)n1 (stereo partly specified)
[C] Cl.NCCCC[C@H](NC(=O)C(F)(F)F)C(=O)c1noc(Cc2ccc(OCCc3ccc(Cl)c(Cl)c3)cc2)n1
[D] CC(C)(C)COC(=O)N[C@@H](CCCCN)C(=O)c1noc(Cc2ccc(OCCc3ccc(Cl)c(Cl)c3)cc2)n1.Cl
*Q* Sort the 4 compounds by Ki; largest first, smallest last. Write the labels in rank order as requested.
*A* B, D, A, C
